Data origin: PubChem BioAssay

ASSAY PROTOCOL: E. coli DRC41 culture turbidity changes, primary screen, E. coli filamentation inducer project, strain DRC41, OD650, 48 h (AID 1152);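 further: E. coli MC1000 strain DRC41 lacking acrAB efflux pump and sulA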
MEASUREMENT CONTEXT: E. coli DRC41 (acrAB sulA), higher = more signal, called active from +8 up or from −8 down
Would you kindly list z-score for each of these molecules?
Write the number on its own, no unit after it.

In: Look up z-score: "NC(=O)NCC#Cc1ccc2c(c1)[C@]1(C(=O)N2)[C@H](C(=O)Nc2nc3ccccc3s2)[C@H]2C(=O)O[C@H](c3ccccc3)[C@H](c3ccccc3)N2[C@@H]1c1ccccc1OCCO"
Out: 1.07

In: Look up z-score: C[C@H]1C2[C@H](Cc3ccccc3)NC(=O)[C@]23C(=O)N[C@H](Cc2ccccc2)C(=O)N2CCC[C@H]2C(=O)NC/C=C\C/C=C/C3[C@@H]2O[C@]12C (stereo partly drawn)
Out: 0.637

In: Look up z-score: "Cc1ccc([C@@H]2C[C@@H](Sc3ccccc3)[C@H](C(=O)O)CN2S(=O)(=O)c2ccc(C)cc2)cc1"
Out: -1.07

In: Look up z-score: C=CCC(OC(C)=O)[C@@H]1[C@@H](N(Cc2ccc(-c3ccccc3)cc2)C(=O)c2cccc3ccccc23)c2cc(OCCCO)ccc2N1C(=O)c1ccc(-c2ccccc2)cc1 (stereo partly drawn)
Out: 0.82

In: Look up z-score: "C=C(/C(=C/C[C@H](OC(C)=O)c1ccccc1OCCO)c1cnc2ccccc2c1)C(C)C"
Out: -0.564

In: Look up z-score: "CC(C)C[C@@H]1NC(=O)[C@@H]2C[C@H](C(=O)O)[C@H](c3cccc(OCCO)c3)N2C1=O"
Out: 0.649

In: Look up z-score: CC1CC/C=C\[C@H]2OC34C=CCN(Cc5ccccc5)C(=O)[C@H]3N(CCCO)C(=O)[C@@H]4C2C(=O)O1 (stereo partly drawn)
Out: 0.144

In: Look up z-score: "C=CCNC(=O)[C@@H]1[C@H]2C(=O)O[C@H](c3ccccc3)[C@H](c3ccccc3)N2[C@H](c2ccccc2OCCO)[C@@]12C(=O)N(C(=O)OCCOC)c1ccccc12"
Out: -0.91

In: Look up z-score: O=C1NC(=O)C2C1C=CC(C(O)c1cc(C(F)(F)F)cc(C(F)(F)F)c1)N2Nc1ccccn1 (stereo not drawn)
Out: -1.87

In: Look up z-score: "C=CCOC(=O)[C@H]1[C@@H]2C(=O)O[C@@H](c3ccccc3)[C@@H](c3ccccc3)N2[C@@H](c2ccc(OCCOC(=O)[C@H]3C[C@H]4C(=O)N[C@@H](CCCC[N+](C)(C)C)C(=O)N4[C@H]3c3ccc(O)cc3)cc2)[C@]12C(=O)Nc1ccc(I)cc12"
Out: -0.535

In: Look up z-score: "COC(=O)C(CC#Cc1ccc2c(c1)[C@]1(C(=O)N2)[C@H](c2ccc(OCCO)cc2)N2[C@H](c3ccccc3)[C@H](c3ccccc3)OC(=O)[C@H]2[C@@H]1C(=O)Nc1nc2ccccc2s1)C(=O)OC"
Out: 1.99

In: Look up z-score: "O=C1N[C@@H](Cc2ccccc2)C(=O)N2[C@@H]1C[C@@H](C(=O)O)[C@H]2c1cccc(OCCO)c1"
Out: 0.931

In: Look up z-score: "O=C1C[C@@](C(=O)NC2CC2)(c2ccc([N+](=O)[O-])cc2)[C@@H](c2ccc(CO)cc2I)N1C1CCCCC1"
Out: -0.178

In: Look up z-score: CN1C(=O)C2C=CC(C(O)C3CC=CCC3)N(N(c3ccccc3)c3ccccc3)C2C1=O (stereo not drawn)
Out: -0.866

In: Look up z-score: "CC(C)(C)OC(=O)CC[C@]1(C(=O)N2CCOCC2)N=C(c2ccc(OCCCO)cc2)O[C@H]1c1ccccc1N=[N+]=[N-]"
Out: 1.52

In: Look up z-score: O[C@@H](Cc1ccccc1)[C@H]1C2C=CCCC=C2CN1Cc1cccc(Cl)c1 (stereo partly drawn)
Out: 1.31

In: Look up z-score: "C=CCNC(=O)[C@@H]1[C@H]2C(=O)O[C@H](c3ccccc3)[C@H](c3ccccc3)N2[C@H](c2ccc(O)cc2)[C@@]12C(=O)N(C(=O)OCCOC)c1ccc(C#CCNC(N)=O)cc12"
Out: 0.411

In: Look up z-score: "CN(C)CCCC[C@@H]1NC(=O)[C@@H]2C[C@H](C(=O)NCCCCCCN)[C@H](c3cccc(OCCO)c3)N2C1=O"
Out: -0.3

In: Look up z-score: "C=C(CCCC)/C(=C/C[C@H](OC(C)=O)c1ccccc1OCCO)c1cc(C(=O)OC)ccc1OC"
Out: 1.02

In: Look up z-score: "COC(=O)[C@@]1(Cc2ccc(OC)cc2)[C@H]2c3cc(C(=O)N(C)C)n(CCc4ccccn4)c3C[C@H]2CN1C(=O)c1ccccc1"
Out: -1.83

In: Look up z-score: "[N-]=[N+]=Nc1ccccc1[C@H]1OC(c2ccc(OCCCO)cc2)=N[C@@]1(CCS(=O)(=O)c1ccccc1)C(N)=O"
Out: 0.613

In: Look up z-score: "O=C1N(Cc2ccccc2)c2ccccc2[C@@H]2OC(c3ccc(OCCCO)cc3)=N[C@]12CCS(=O)(=O)c1ccccc1"
Out: -0.355

In: Look up z-score: "C=CC[C@]1(C(=O)NCc2ccccc2)N=C(c2ccc(OCCCO)cc2)O[C@H]1c1ccccc1N=[N+]=[N-]"
Out: 0.0858

In: Look up z-score: "C=CCNC(=O)[C@H]1[C@@H]2C(=O)O[C@@H](c3ccccc3)[C@@H](c3ccccc3)N2[C@@H](c2ccccc2OCCO)[C@]12C(=O)Nc1ccc(C#CCCO)cc12"
Out: -0.849

In: Look up z-score: COc1cc(C(O)C2C=CC3C(=O)NC(=O)C3N2Nc2ccccn2)cc(OC)c1OC (stereo not drawn)
Out: -1.57

In: Look up z-score: "C=C(COC)/C(=C/C[C@@H](OC(=O)c1ccncc1)c1ccc(CO)o1)c1cc(C(=O)OC)ccc1OC"
Out: 0.855

In: Look up z-score: "[N-]=[N+]=NCc1ccccc1[C@@H]1OC(c2ccc(OCCCO)cc2)=N[C@]1(Cc1ccccc1)C(N)=O"
Out: -0.451

In: Look up z-score: "COC(=O)[C@@]1(Cc2ccccc2)N=C(c2ccc(OCCCO)cc2)O[C@H]1c1ccccc1"
Out: 0.792
